Data provenance is ChEMBL document CHEMBL3352143.

System: RAW264.7
Assay: Anti-inflammatory activity in mouse RAW264.7 cells assessed as inhibition of IFN-gamma plus LPS-induced NO production
Assay type: functional, cell-based
pIC50: −log10 of the molar value.
Cut-off 5 on pIC50, inclusive. At or above means label 1; below means label 0.

Solved cases below.
- Molecule: "COc1ccc2c(c1)c(CC(=O)O)c(C)n2C(=O)c1ccc(Cl)cc1"
  Class Name: "label 1"
- Molecule: "CC1(C)C=Cc2c(c(O)cc3oc4cc(O)cc(O)c4c(=O)c23)O1"
  Class Name: "label 0"
- Molecule: "CC(C)=CCc1c(O)cc(O)c2oc3cc(O)cc(O)c3c(=O)c12"
  Class Name: "label 1"
- Molecule: "CC1(C)C=Cc2c(cc3oc4ccc(O)cc4c(=O)c3c2O)O1"
  Class Name: "label 0"

Now consider a different molecule.
*Q* Could you please find out whether "CC(C)=CCc1c(O)cc2oc3ccc(O)cc3c(=O)c2c1O" has pIC50 that meets 5 or exceeds it?
*A* label 0

---

Some compounds, each annotated with its measured IC50.
System: RAW264.7
Test: Anti-inflammatory activity in mouse RAW264.7 cells assessed as inhibition of IFN-gamma plus LPS-induced NO production
Assay type: functional, cell-based

# count of solved cases: 2
- Compound: "CC(C)=CCc1c(O)cc2oc3cc(O)c(O)c(CC=C(C)C)c3c(=O)c2c1O"
  Tgt: "RAW264.7"
  IC50: "> 50 µM"
- Compound: "C=C(C)C(CC=C(C)C)C[C@]12C[C@H](CC=C(C)C)C(C)(C)[C@](CC=C(C)C)(C(=O)c3c1oc1cc(O)c(O)cc1c3=O)C2=O (stereo partly drawn)"
  Tgt: "RAW264.7"
  IC50: "17 µM"

Now for another entry.
*Q* IC50 for C=C(C)C(O)C[C@H](C[C@]12C[C@@H](CC=C(C)C)C(C)(C)[C@](CC=C(C)C)(C1=O)c1oc3cc(O)c(O)cc3c(=O)c1C2=O)C(=C)C (stereo partly drawn) ?
*A* 12.9 µM

---

System: RAW264.7
Experiment: Anti-inflammatory activity in mouse RAW264.7 cells assessed as inhibition of IFN-gamma plus LPS-induced NO production
Assay type: functional, cell-based
Some compounds, each annotated with its measured IC50.
Value expressed in µM; do not type the unit.

- Compound: "C=C(C)[C@H](CC=C(C)C)C[C@@]12C[C@@H](CC=C(C)C)C(C)(C)[C@@](CC=C(C)C)(C(=O)C(C(=O)c3ccc(O)c(O)c3)=C1O)C2=O [GUTTIFERONE F]"
  Meas Value: 14.1

Now for another entry.
*Q* IC50 for "CC1=C[C@H]2c3c(c(O)c(O)c4oc5cc(O)cc(O)c5c(=O)c34)[C@H](c3cc(O)c(O)c4oc5cc(O)cc(O)c5c(=O)c34)[C@H]2C(C)(C)C1" ?
*A* 41.9

---

Some molecules, each annotated with its measured IC50.
Tested on: RAW264.7
Assay: Anti-inflammatory activity in mouse RAW264.7 cells assessed as inhibition of IFN-gamma plus LPS-induced NO production
Type: functional, cell-based
Value expressed in µM; do not type the unit.

# count of solved cases: 4
- Molecule: "CC1(C)CCc2c(c(O)cc3oc4cc(O)cc(O)c4c(=O)c23)O1 [HYPERXANTHONE E]"
  Tgt: "RAW264.7"
  IC50 (µM): 4
- Molecule: "C=C(C)C(C[C@@H](O)C(=C)C)C[C@@]12C[C@@H](CC=C(C)C)C(C)(C)[C@@](CC=C(C)C)(C(=O)C(C(=O)c3ccc(O)c(O)c3)=C1O)C2=O (stereo not given in full)"
  Tgt: "RAW264.7"
  IC50 (µM): 19.1
- Molecule: "C=C(C)C(C[C@H](O)C(=C)C)C[C@@]12C[C@@H](CC=C(C)C)C(C)(C)[C@@](CC=C(C)C)(C(=O)C(C(=O)c3ccc(O)c(O)c3)=C1O)C2=O (stereo not given in full)"
  Tgt: "RAW264.7"
  IC50 (µM): 29.1
- Molecule: "C=C(C)[C@@H]1C[C@]23C[C@H](CC=C(C)C)C(C)(C)[C@](CC=C(C)C)(C(=O)C(C(=O)c4ccc(O)c(O)c4)=C2O[C@H]1C=C(C)C)C3=O [GARCINIALIPTONE B]"
  Tgt: "RAW264.7"
  IC50 (µM): 21.3

*Q* IC50 for C=C(C)C(O)C[C@H](C[C@@]12C[C@@H](CC=C(C)C)C(C)(C)[C@@](CC=C(C)C)(C(=O)C(C(=O)c3ccc(O)c(O)c3)=C1O)C2=O)C(=C)C (stereo not given in full) [GARCIMULTIFLORONE E] ?
*A* 1.1

*Q* IC50 for "O=c1c2cc(O)c(O)cc2oc2cc(O)cc(O)c12" ?
*A* 43
